Please respond with reported apparent KD of MS2 coat protein for every item in the list.
Tested on: MS2 coat protein
Experiment: apparent KD of MS2 coat protein; designed switch direction (-1 OFF switch, 1 ON switch): -1; higher = weaker reporter binding
Conditions: Eterna round: R95; input ligand: microRNA oligo, concentration not stated
Value and unit, in that order.

**Q:** What does the record list as apparent KD of MS2 coat protein for CAUACUGAAGUUAGGAUAUUCGAACGUAUACGGAUGGAGAAGGGACAUGAGGAUCACCCAUGUAGUUAGUAAAG [EX-4 Malc #10] (puzzle: Brourd's mod of Exclusion 4) ?
**A:** 17.4 nM

**Q:** What does the record list as apparent KD of MS2 coat protein for GAGUGACAUGAGGAUCACCCAUGUGAGGAUAUGCGAUGGACCAAAUUAACAAUAGAAGGCAGAAGGCGCAUAAA [Exclusion 1 V9] (puzzle: Exclusion 1) ?
**A:** 34.8 nM

**Q:** What does the record list as apparent KD of MS2 coat protein for UUAUACGCUGAGGAUAUCUUCACUAAAGUGUGAAGAGAAGGCGGUACAUGAGGAUCACCCAUGUCUAUGGGCAG [Ex-6 Malc#18] (puzzle: Exclusion 6) ?
**A:** 568 nM

**Q:** What does the record list as apparent KD of MS2 coat protein for AAGAAGCGAGGAUAUACAUGAGGAUCACCCAUGUACCUCAUAAAGAAAAGAAAAGAAAGUAGAAGGCGCAAAAG [Default title] (puzzle: Exclusion 3) ?
**A:** 23.1 nM

**Q:** What does the record list as apparent KD of MS2 coat protein for GGAGAACAUGAGGAUCACCCAUGUAAGGAUAUGCAAAAGGAUAUAGAAGGAAAAAAAAGCAGAAGGUACAAAGG [salish99-ex1_r3_101] (puzzle: Exclusion 1) ?
**A:** 81.9 nM

---

Tested on: K4 kissing-loop RNA reporter;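 also: bound reporter read as fluorescence of individual clusters on recovered sequencing chips by microscopy, with normalized cluster intensities fitted with a binding model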
Assay: apparent KD of K4 kissing-loop reporter; higher = weaker reporter binding
Conditions: Eterna round: R107; input ligand: tryptophan 2.4 mM
quantity: apparent KD of K4 kissing-loop reporter (nM)
Give the value, in units of nM, as a plain number.

**Q:** What does the record list as apparent KD of K4 kissing-loop reporter for AAUACAGUGUCGGCCGCCACUGUAACAUGCCAUGAGACAUGAGACAUGAGUGAUGUUCAUGUAGACAGGACCGGGACUCAUGUAU [KL-SSTryp-B3 #analogue] ?
**A:** 227

**Q:** What does the record list as apparent KD of K4 kissing-loop reporter for ACGAUCAUGUCGGCCGCCACUGAGAGUAGUGAUGUUACUUUUAUGUUUUAGUUAUAAUAUUUGAACAGGACCGGGACAUGUUCGU [JR_ExcTryptoB_Sub023] ?
**A:** 92.2

**Q:** What does the record list as apparent KD of K4 kissing-loop reporter for UCGCCAAAGUCGGCCGCCACUCCGGGCCCUAUAAAUGGGCGCAGUGAUGUUGCGGCUAGGCCUCUGAGGACCGGGACUUUGUAGA [Esenusza] ?
**A:** 152

**Q:** What does the record list as apparent KD of K4 kissing-loop reporter for GGGAGUAGUGCGGCCGCCACUGAGAAAGAAGAAGAAUAUAGUGAUGUUAUAUAGGAAUAAAAGAAUAGGACCGGGCAUUAGAUUU [SSTRyptB.S] ?
**A:** 159

**Q:** What does the record list as apparent KD of K4 kissing-loop reporter for AGUGUUAGGUUAGAUACCAGCCGUCUAUGGAUAAUCCUCAGACCGCCAGUGAUGUUGGCAGGCCCUUGGCAGCUAACAGAACAGA [Reinonor] ?
**A:** 213

**Q:** What does the record list as apparent KD of K4 kissing-loop reporter for UUCUUGAUGGAAACAUCGAGUAUUACUGAUACCAGUAUCGAUAGAUACCCUUGGCAGCAGAAUCAGUAAUAACGAGUGAUGUUCG [Ex Theophylline A K4 5] ?
**A:** 480

**Q:** What does the record list as apparent KD of K4 kissing-loop reporter for ACCUACCAUUAGUGAUGUUAAUGGACGGAAGGAGCGCGGAUAUCCGCAGGUAGGUCGCCGAAGGCUAGACAUUGUCUAGCCAUUA [AK1.2 SS Arginine A] ?
**A:** 182

**Q:** What does the record list as apparent KD of K4 kissing-loop reporter for AGAGUCACAUAAGGAUAUCCCUUGACGGGAACCAAGUGAUGUUUGGUUAGACGACCUCUUAUCACGGGAGAAGGUAUAUUUGUAU [theeternabot_sameState_KL_FMN_B_27] ?
**A:** 612

**Q:** What does the record list as apparent KD of K4 kissing-loop reporter for UGUAUGUGAUUUGAUACCAGACAAGCAGGUGUGACAAGAGUGAUGUUCUUGAUGGUUUGGGUCCCUUGGCAGCAAAUCGCAUACU [KL-SSTheoB16] ?
**A:** 154

**Q:** What does the record list as apparent KD of K4 kissing-loop reporter for ACGCUGUGAAUAACACAGCGAAUAAAUUCGCGAGGACCGGUACGGCCGCCACUCGCUAACUGCGAGUGAUGUUCGAUAAUAAAAU [Mat - Mod of OpenEnded 3 - D13] ?
**A:** 91.1

**Q:** What does the record list as apparent KD of K4 kissing-loop reporter for AUAUUAAGCGGAAGGAGCGGCUGAACCAGUGAUGUUGGUUAAUCCAAGUGAUGUUGGAAAAGCCAGGUAGGUCGCCGCUAUAUAU [Same State Arg B GF 1] ?
**A:** 640

**Q:** What does the record list as apparent KD of K4 kissing-loop reporter for AGAUGACACCGAGGAUAUCCUAAUAUGGGUGAUGUUAGCGAUGUUGAAGGUGUAGUGAUGUUAUGCGGAGAAGGCGGUGUUGUUU [BDazzled - #21 - Exc. FMN B] ?
**A:** 132

**Q:** What does the record list as apparent KD of K4 kissing-loop reporter for UCUGAAGGUGGAGGAUAUUGAUUGAAUCUUGGUCAGGAGUGAUGUUCCGGGAAGCCUUGGAUUCAUCGAGAAGGCCAAGGAUAGU [#10 K4 FMN B Same State] ?
**A:** 225

**Q:** What does the record list as apparent KD of K4 kissing-loop reporter for CUCGAGUGAUGUUCGAUUAUGUAUACAGAUACCAGUGAAUUUUAACACCCUUGGCAGCUGGUAGAAUCAUUUUAAUUUUAACUAG [JR_SSTheophyA_Sub021] ?
**A:** 162

**Q:** What does the record list as apparent KD of K4 kissing-loop reporter for AAGUGUGUGGCGGCCGCCACUAGUCUCCAGUGAUGUUGGAGAUAUCACGUAAGUGAUAUCCGACAUAGGACCGGGCCAUAUAGAA [Same State - Tryptophan B (Freestyle 21)] ?
**A:** 474

**Q:** What does the record list as apparent KD of K4 kissing-loop reporter for UUGAGCCGGACGUAAGUCCGGCUCUGCGAGCGAGGACCGGUACGGCCGCCACUCGGUGCAGUGAUGUUGCAUGGCCGCAAGGCCG [#2 Exclusion - Tryptophan A Attempt #5 (HarryS)] ?
**A:** 278

**Q:** What does the record list as apparent KD of K4 kissing-loop reporter for UUUAUUAAGACGGCCGCCACUGAUUCAGAGUGAUGUUCUGAUAUUUUUUUAUAUAAUAAUAACAGCAGGACCGGGUCAAUUAUUA [JR_SSTryptoB_Sub013] ?
**A:** 192

**Q:** What does the record list as apparent KD of K4 kissing-loop reporter for UGAGUUUGAGUGAUGUUCAGGCAUUGGUACGAGGAUAUCGAGGAGUUGAGAAGGCGUACUGCUCAACUUUGUAUGAAUACAUACA [FMN A Ex t2b] ?
**A:** 103

**Q:** What does the record list as apparent KD of K4 kissing-loop reporter for AUUUAAUGUAUAGAUUAUAUACAUAAUUCAGAGGAUAUGCAUAGAAGCAGAAGGCUGGUUGCAGUGAUGUUGCUUUUUUAAUUUA [JR_SSFMNA_Sub008] ?
**A:** 63.8

**Q:** What does the record list as apparent KD of K4 kissing-loop reporter for "AAAAUAAGCCAGUGAUGUUGGUAGCCAGAUACCAGCGACGAAAGUCGCCCUUGGCAGCUGUGGACGUACAAAAUAAGUACGUCCU" ?
**A:** 723

**Q:** What does the record list as apparent KD of K4 kissing-loop reporter for AAUGGAGGCUGAAGGAGCGCCGCCAGUGAUGUUGGGAGUUAGAUACCAGUGAUGUUGGGCCGGCAGGUAGGUCGCGGUUUUUAUU [Exclusion Arginine B Gf 16] ?
**A:** 126

**Q:** What does the record list as apparent KD of K4 kissing-loop reporter for UGGGAUGUUAAAGGAUAUAGCAAGUGAUAUAAGAAAGUGAGUGAUGUUGAUGUAGGUGAUGAUAUGUUAGAAGGUUAACAAAACG [abcdefg] ?
**A:** 257

**Q:** What does the record list as apparent KD of K4 kissing-loop reporter for AGGAUGUAGUGAUGUUAUAUAAGAAGUAGACGAGGACCGGUACGGCCGCCACUCGAAACGGCUACUAGCGCGUUGCGAGGUGUGC [ExTryptoA.Cg] ?
**A:** 326
